Target: PSA (prostate specific antigen) (Homo sapiens)
Construct: PSA was purified from human seminal plasma; from tissue; host or cells: human seminal plasma
Sequence (P07288 25-261): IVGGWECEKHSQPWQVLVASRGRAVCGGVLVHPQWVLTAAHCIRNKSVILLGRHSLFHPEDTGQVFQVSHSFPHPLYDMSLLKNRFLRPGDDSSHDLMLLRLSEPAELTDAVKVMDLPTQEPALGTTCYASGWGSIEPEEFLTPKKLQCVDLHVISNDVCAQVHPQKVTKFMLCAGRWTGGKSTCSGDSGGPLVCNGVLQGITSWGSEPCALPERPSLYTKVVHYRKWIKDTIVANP
Test: Cleavage of AMC-labelled peptide substrates by purified PSA (fluorescence of released AMC; Lineweaver-Burke kinetics)
Type: biochemical
Conditions: PSA substrate, PSA assay buffer pH 7.8, Lineweaver-Burke
Method: The peptides discussed herein were custom synthesized by Enzyme Systems Products (Dublin, Calif.) and, after HPLC separation and purification to >95%, the molecular weights were confirmed by mass spectroscopy. […] Cleavage was studied by measuring fluorescence change secondary to AMC release. Fluorescence detection was carried out with a Fluoroskan II 96 well fluorometric plate reader (ICN Biomedicals, Costa Mesa, Calif.), with excitation wavelength 355 nm and emission wavelength 460 nm. […]
Starred links: 1 amine or outer side, 2 acyl side, 3 side chain; linkers in the order of their positions; H or OH if unused. Residues, ends and D or L forms follow the SMILES beside them. *: point of attachment. AMC = Cc1cc(=O)oc2cc(N*)ccc12; Morpholide = C1CN(*)CCO1; CO = O=C([*:1])[*:2]
PROPERTY MEASURED: Km
For clarity, give the value followed by its unit.

Form: item Cc1cc(=O)oc2cc(NC(=O)[C@H](CCC(N)=O)NC(=O)[C@H](CC(C)C)NC(=O)[C@H](CCCCN)NC(=O)[C@H](CO)NC(=O)[C@H](CO)NC(=O)[C@H](Cc3c[nH]cn3)NC(=O)N3CCOCC3)ccc12 [HSSKLQ, His-Ser-Ser-Lys-Leu-Gln] ({Morpholide-CO}-HSSKLQ-{AMC}) ; test system PSA (prostate specific antigen) (Homo sapiens); Km: 470 µM

Form: item Cc1cc(=O)oc2cc(NC(=O)[C@H](Cc3c[nH]cn3)NC(=O)[C@H](CCC(N)=O)NC(=O)[C@H](CCCCN)NC(=O)[C@H](CO)NC(=O)[C@H](CCCCN)NC(=O)[C@@H](NC(=O)[C@H](C)NC(=O)N3CCOCC3)[C@@H](C)O)ccc12 [ATKSKQH, Ala-Thr-Lys-Ser-Lys-Gln-His] ({Morpholide-CO}-ATKSKQH-{AMC}) ; test system PSA (prostate specific antigen) (Homo sapiens); Km: 310 µM

Form: item Cc1cc(=O)oc2cc(NC(=O)[C@H](CCC(N)=O)NC(=O)[C@H](CC(C)C)NC(=O)[C@H](CCCCN)NC(=O)[C@H](CO)NC(=O)N3CCOCC3)ccc12 [SKLQ, Ser-Lys-Leu-Gln] ({Morpholide-CO}-SKLQ-{AMC}) ; test system PSA (prostate specific antigen) (Homo sapiens); Km: 813 µM

Form: item Cc1cc(=O)oc2cc(NC(=O)[C@H](CCC(N)=O)NC(=O)[C@H](CC(C)C)NC(=O)[C@H](CCCCN)NC(=O)[C@H](CO)NC(=O)[C@H](CO)NC(=O)[C@H](Cc3c[nH]cn3)NC(=O)[C@H](CCC(=O)O)NC(=O)N3CCOCC3)ccc12 [EHSSKLQ, Glu-His-Ser-Ser-Lys-Leu-Gln] ({Morpholide-CO}-EHSSKLQ-{AMC}) ; test system PSA (prostate specific antigen) (Homo sapiens); Km: 1160 µM

----------
target: PSA (prostate specific antigen) (Homo sapiens); construct: PSA was purified from human seminal plasma; from tissue; host or cells: human seminal plasma; assay: Cleavage of AMC-labelled peptide substrates by purified PSA (fluorescence of released AMC; Lineweaver-Burke kinetics); assay type: biochemical; settings: PSA substrate, PSA assay buffer pH 7.8, Lineweaver-Burke
Starred links: 1 amine or outer side, 2 acyl side, 3 side chain; linkers in the order of their positions; H or OH if unused. Residues, ends and D or L forms follow the SMILES beside them. *: point of attachment. AMC = Cc1cc(=O)oc2cc(N*)ccc12; Morpholide = C1CN(*)CCO1; CO = O=C([*:1])[*:2]
Assignment: determine reported Kcat for the given molecules.
I only need the number, in s⁻¹, no unit after it.

Form: item Cc1cc(=O)oc2cc(NC(=O)[C@H](CCC(N)=O)NC(=O)[C@H](CC(C)C)NC(=O)[C@H](CCCCN)NC(=O)[C@H](CO)NC(=O)[C@H](CO)NC(=O)[C@H](Cc3c[nH]cn3)NC(=O)[C@H](CCC(=O)O)NC(=O)N3CCOCC3)ccc12 [EHSSKLQ, Glu-His-Ser-Ser-Lys-Leu-Gln] ({Morpholide-CO}-EHSSKLQ-{AMC}) ; test system PSA (prostate specific antigen) (Homo sapiens); Kcat: 0.02

Form: item Cc1cc(=O)oc2cc(NC(=O)[C@H](CCC(N)=O)NC(=O)[C@H](CC(C)C)NC(=O)[C@H](CCCCN)NC(=O)[C@H](CO)NC(=O)N3CCOCC3)ccc12 [SKLQ, Ser-Lys-Leu-Gln] ({Morpholide-CO}-SKLQ-{AMC}) ; test system PSA (prostate specific antigen) (Homo sapiens); Kcat: 0.020

Form: item Cc1cc(=O)oc2cc(NC(=O)[C@H](Cc3c[nH]cn3)NC(=O)[C@H](CCC(N)=O)NC(=O)[C@H](CCCCN)NC(=O)[C@H](CO)NC(=O)[C@H](CCCCN)NC(=O)[C@@H](NC(=O)[C@H](C)NC(=O)N3CCOCC3)[C@@H](C)O)ccc12 [ATKSKQH, Ala-Thr-Lys-Ser-Lys-Gln-His] ({Morpholide-CO}-ATKSKQH-{AMC}) ; test system PSA (prostate specific antigen) (Homo sapiens); Kcat: 0.0091

Form: item Cc1cc(=O)oc2cc(NC(=O)[C@H](CCC(N)=O)NC(=O)[C@H](CC(C)C)NC(=O)[C@H](CCCCN)NC(=O)[C@H](CO)NC(=O)[C@H](CO)NC(=O)[C@H](Cc3c[nH]cn3)NC(=O)N3CCOCC3)ccc12 [HSSKLQ, His-Ser-Ser-Lys-Leu-Gln] ({Morpholide-CO}-HSSKLQ-{AMC}) ; test system PSA (prostate specific antigen) (Homo sapiens); Kcat: 0.011

----------
target: tissue plasminogen activator (TPA) (Homo sapiens, UniProt P00750); construct: purchased Calbiochem; assay: Peptide-AMC cleavage by purified extracellular protease; assay type: biochemical; conditions: 0.2 mM substrate, PSA assay buffer pH 7.8
Sequence (P00750 36-562, species assumed): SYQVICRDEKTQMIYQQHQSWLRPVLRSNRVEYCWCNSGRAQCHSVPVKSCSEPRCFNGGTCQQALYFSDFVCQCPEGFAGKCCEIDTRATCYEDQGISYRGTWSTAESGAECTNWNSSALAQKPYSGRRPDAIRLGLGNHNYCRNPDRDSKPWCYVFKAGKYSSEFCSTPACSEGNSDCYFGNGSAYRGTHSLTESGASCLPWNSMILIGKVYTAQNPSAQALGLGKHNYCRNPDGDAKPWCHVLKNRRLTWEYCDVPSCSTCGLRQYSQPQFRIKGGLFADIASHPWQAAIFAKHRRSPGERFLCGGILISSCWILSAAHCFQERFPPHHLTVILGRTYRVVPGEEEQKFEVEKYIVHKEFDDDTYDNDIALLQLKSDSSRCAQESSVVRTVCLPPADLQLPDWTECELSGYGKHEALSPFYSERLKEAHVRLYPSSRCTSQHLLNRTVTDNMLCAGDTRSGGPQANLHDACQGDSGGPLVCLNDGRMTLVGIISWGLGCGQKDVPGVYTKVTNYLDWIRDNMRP
Starred links: 1 amine or outer side, 2 acyl side, 3 side chain; linkers in the order of their positions; H or OH if unused. Residues, ends and D or L forms follow the SMILES beside them. *: point of attachment. AMC = Cc1cc(=O)oc2cc(N*)ccc12; Morpholide = C1CN(*)CCO1; CO = O=C([*:1])[*:2]
Assignment: determine reported Picomoles of substrate cleaved/minute/200 pmoles of indicated protease: TPA for the given compounds.

Form: item CC[C@H](C)[C@H](NC(=O)[C@H](CCCCN)NC(=O)[C@H](CC(N)=O)NC(=O)[C@H](CCC(=O)O)NC(=O)N1CCOCC1)C(=O)N[C@@H](CO)C(=O)N[C@@H](Cc1ccc(O)cc1)C(=O)N[C@@H](CCC(N)=O)C(=O)Nc1ccc2c(C)cc(=O)oc2c1 [ENKISYQ, Glu-Asn-Lys-Ile-Ser-Tyr-Gln] ({Morpholide-CO}-ENKISYQ-{AMC}) ; test system tissue plasminogen activator (TPA) (Homo sapiens, UniProt P00750); Picomoles of substrate cleaved/minute/200 pmoles of indicated protease: TPA: .04 picomoles/minute/200 pmoles pr

Form: item CC[C@H](C)[C@H](NC(=O)[C@H](CCCCN)NC(=O)[C@H](CC(N)=O)NC(=O)[C@H](CCC(N)=O)NC(=O)N1CCOCC1)C(=O)N[C@@H](CO)C(=O)N[C@@H](Cc1ccc(O)cc1)C(=O)N[C@@H](CCC(N)=O)C(=O)Nc1ccc2c(C)cc(=O)oc2c1 [QNKISYQ, Gln-Asn-Lys-Ile-Ser-Tyr-Gln] ({Morpholide-CO}-QNKISYQ-{AMC}) ; test system tissue plasminogen activator (TPA) (Homo sapiens, UniProt P00750); Picomoles of substrate cleaved/minute/200 pmoles of indicated protease: TPA: 0.4 picomoles/minute/200 pmoles pr

----------
test system: Trypsin; experiment: Peptide-AMC cleavage by purified extracellular protease; type: biochemical; settings: 0.2 mM substrate, PSA assay buffer pH 7.8
Starred links: 1 amine or outer side, 2 acyl side, 3 side chain; linkers in the order of their positions; H or OH if unused. Residues, ends and D or L forms follow the SMILES beside them. *: point of attachment. AMC = Cc1cc(=O)oc2cc(N*)ccc12; Morpholide = C1CN(*)CCO1; CO = O=C([*:1])[*:2]
PROPERTY MEASURED: Picomoles of substrate cleaved/minute/200 pmoles of indicated protease: Trypsin

response.value for CC[C@H](C)[C@H](NC(=O)[C@H](CCCCN)NC(=O)[C@H](CC(N)=O)NC(=O)[C@H](CCC(=O)O)NC(=O)N1CCOCC1)C(=O)N[C@@H](CO)C(=O)N[C@@H](Cc1ccc(O)cc1)C(=O)N[C@@H](CCC(N)=O)C(=O)Nc1ccc2c(C)cc(=O)oc2c1 [ENKISYQ, Glu-Asn-Lys-Ile-Ser-Tyr-Gln] ({Morpholide-CO}-ENKISYQ-{AMC}) (field: Picomoles of substrate cleaved/minute/200 pmoles of indicated protease: Trypsin) = 1.8 picomoles/minute/200 pmoles pr
